assayedSystem: T1, murine BACE1 ECD
T1 construct: analyte of the Octet assay (200 nM) and enzyme of the first short substrate assay
T1 sequence (single chain, as listed by the source limits assumed): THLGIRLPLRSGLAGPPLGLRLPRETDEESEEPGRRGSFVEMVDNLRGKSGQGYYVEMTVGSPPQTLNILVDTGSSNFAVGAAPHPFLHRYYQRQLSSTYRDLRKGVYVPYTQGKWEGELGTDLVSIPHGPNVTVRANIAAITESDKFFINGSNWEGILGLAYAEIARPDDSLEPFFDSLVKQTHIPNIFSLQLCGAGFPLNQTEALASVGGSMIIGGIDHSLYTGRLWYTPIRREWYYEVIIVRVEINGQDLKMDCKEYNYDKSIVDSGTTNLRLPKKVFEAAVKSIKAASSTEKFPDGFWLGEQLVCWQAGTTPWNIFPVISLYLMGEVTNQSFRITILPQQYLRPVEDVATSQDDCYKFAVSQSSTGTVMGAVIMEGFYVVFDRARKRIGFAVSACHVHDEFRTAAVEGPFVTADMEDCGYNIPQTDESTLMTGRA
assayDetails: Octet, pH 5.0;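 note: antibodies captured on anti-human capture sensor tips, dissociation monitored in PBS with BSA buffer, kinetics fitted with a one-to-one binding model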
Entries and their measured Kd follow.

binder: 5892 (antibody, V domains shown, anti-BACE1 IgG) VH: QVQLVQSGAEVKKPGSSVKVSCKASGGTFSSYAISWVRQAPGQGLEWMGNIIPIFGTATYAQKFQGRVTITADESTSTAYMELSSLRSEDTAVYYCARSGGTKYGMLDVWGQGTMVTVSS VL: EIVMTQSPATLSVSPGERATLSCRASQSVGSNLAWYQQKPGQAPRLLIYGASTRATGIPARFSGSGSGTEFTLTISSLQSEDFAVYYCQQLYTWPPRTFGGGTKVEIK
valueMeasured: 1.1 nM

Note: attention shifts to another entry.
Prompt: Quickly give me recorded Kd for 5984 (antibody, V domains shown, anti-BACE1 IgG) VH: QLQLQESGPGLVKPSETLSLTCTVSGGSISSSSYYWGWIRQPPGKGLEWIGNIYYSGSTYYNPSLKGRVTISVDTSKNQFSLKLSSVTAADTAVYYCARLGHGYNYFDLWGRGTLVTVSS VL: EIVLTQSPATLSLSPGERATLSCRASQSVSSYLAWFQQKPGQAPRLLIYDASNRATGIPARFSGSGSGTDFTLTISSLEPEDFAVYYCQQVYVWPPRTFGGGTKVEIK
Response: 0.37 nM
